Origin of measurements: ChEMBL document CHEMBL4513216

experiment: Toxicity liver stage against HepG2, at 10uM; type: cell-based; set-up: test concentration 10 uM, cell line HepG2-A16-CD81EGFP; conditions: human, HepG2-A16-CD81EGFP cells; read-out: INHIBITION
Measured cytotoxicity at 10 µM, listed per entry.
Give just the number in %; leave the unit off.

The compound identified as CC(C)c1cc(C(=O)N2Cc3ccccc3CC2C(=O)O)nn1C (stereo unspecified) registered its cytotoxicity at 10 µM at 7.97

The compound identified as OCCOc1ccc(NCc2cccc3[nH]ccc23)cn1 registered its cytotoxicity at 10 µM at 0.205

The compound identified as COc1ccc(CC(=O)N2Cc3nccn3CC(CN(C)C)C2)cc1 (stereo unspecified) registered its cytotoxicity at 10 µM at -116

The compound identified as O=c1cc(-c2ccncc2)nc(-c2ccc(CN3CC[C@H](O)C3)cc2)[nH]1 registered its cytotoxicity at 10 µM at 4.48

The compound identified as c1cnc2c(c1)cc([C@H]1CCCO1)n2CCN1CCOCC1 registered its cytotoxicity at 10 µM at -11.3

The compound identified as O=C(NCC1(Sc2ccccc2)CC1)c1ccc(=O)[nH]n1 registered its cytotoxicity at 10 µM at 1.52

The compound identified as COc1cccc2c1ccn2CC(=O)N[C@@H](CCSC)C(=O)O registered its cytotoxicity at 10 µM at 3.2

The compound identified as COc1cccc(CCNC(=O)CN2CCN(C)CC2C)c1 (stereo unspecified) registered its cytotoxicity at 10 µM at -16.7

The compound identified as CC(C)c1nc(CN(C)S(=O)(=O)c2cccs2)cs1 registered its cytotoxicity at 10 µM at -48.8

The compound identified as Cc1nc(CN2CCCC(N(C)CC(=O)Nc3cccnc3)C2)no1 (stereo unspecified) registered its cytotoxicity at 10 µM at -7.88

The compound identified as COc1cnc(N2CC(N3CCOCC3)C2)nc1-c1ccnn1C registered its cytotoxicity at 10 µM at 6.24
